The measurements presented in this section are drawn from PubChem BioAssay (NCATS).

Target: Cytochrome P450 1A2 (Homo sapiens)
Assay: p450-cyp1a2 (AID 410)
Details: recombinant CYP1A2, luciferin-ME demethylation, luminescence; series mostly up to 57 µM
Results filed as inconclusive are left out. Active and inactive are the calls of the source. Calls follow the shape of the full dose curve.
Reply using exactly one outcome from y = active, n = inactive

// below: answered compounds
1) O=C(c1ccncc1)N1CCC2(CCCN(Cc3ccccc3)C2)CC1: n
2) FC(F)(F)c1ccccc1-c1cc(NCc2cccnc2)ncn1: y
3) CN1CCN(c2ncncc2-c2ccc(N(C)C)cc2)CC1: y
4) c1cn(-c2ccnc(-c3ccc4c(c3)OCO4)n2)cn1: y

Write down the call the test reported for this compound. Item: Cn1cc(-c2nc3cnc(N4CCNCC4)nc3n(Cc3ccc(F)cc3)c2=O)c2ccccc21
y
